Each recorded value in this set is attributed to ChEMBL document CHEMBL1201862.

The entries below are paired with their reported GI50.
tested on: IGROV-1; assay: NCI tumour cell line growth inhibition, 48 h
The source made the active and inactive calls. No stated cut-off is given here; in the data, active = GI50 up to about 1.1 µM and inactive = higher.

Some solved cases for reference:
COc1cc2c(cc1OC)C(Cl)C(c1ccc(Cl)c(Cl)c1)=C2Cl (stereo unspecified): 10.7 µM (inactive)
Cc1c(OCc2cccc3ccccc23)ccc2c(=O)cc(SCCN3CCOCC3)oc12: > 100 µM (inactive)
COc1cc(CNC(=S)CCCCCCCCCCC(C)C)ccc1O: 44.2 µM (inactive)
O=[N+]([O-])/C=C/c1ccc2ccccc2c1: 2.79 µM (inactive)
O=C1CCCCCCCCCCC1CCCCCBr (stereo unspecified): 20.1 µM (inactive)

Below: the item to evaluate.
Task item: Suppose we examine the compound `Cc1nc(-n2nc(-c3ccccc3)cc2-c2ccccc2)sc1C(/C=C/c1ccc([N+](=O)[O-])cc1)=N/NC(=O)c1ccncc1` ; what GI50 value has been reported?
Reply: 21.1 µM (inactive)
